These data points were gathered from patent US20230272051A1.

The binders listed here are annotated with their koff.
Biological target: T1, SARS-CoV-2 Receptor Binding Domain (RBD) protein (SARS-CoV-2, UniProt P0DTC2 319-541)
T1 construct: also called Sars-Cov-2 (COV2)
Experiment: SPR (Carterra LSA); scFv captured by anti-V5, RBD as analyte

binder | koff
COVID19_P13_A08 (scFv, V domains shown) VH: QVQLVQSGAEVKKPGSSVKVSCKASGYTFINYDINWVRQAPGQGLEWMGGITPIFGTANYAQKFQGRVTITADESTSTAYMELSSLRSEDTAVYYCARDTVMGGMDVWGQGTLVTVSS VL: SSYVLTQPPSVSVAPGKTARITCGGNNIGSKSVHWYQQKPGQAPVLVIYYDSDRPSGIPERFSGSNSGNTATLTISRVEAGDEADYYCQVWDSRSDYVFGGGTKLTVLA | 0.00046 s⁻¹
COVID19_P02_A04 (scFv, V domains shown) VH: QVQLVQSGAEVKKPGSSVKVSCKASGYAFTSYYMHWVRQAPGQGLEWMGVIDPSEGSTSNARKFQGRVTITADESTSTAYMELSSLRSEDTAVYYCVSDTVMGGMDVWGQGTLVTVSS VL: SSYVLTQPPSVSVAPGKTARITCGGNNIGSKSVHWYQQKPGQAPVLVVYDDSDRPSGIPERFSGSNSGNTATLTISRVEAGDEADYYCQVWDSSSLYVFGGGTKLTVLA | 0.0187 s⁻¹
COVID19_P01_B08 (scFv, V domains shown) VH: QVQLVQSGAEVKKPGSSVKVSCKASGGTFSNFAITWVRQAPGQGLEWMGVINPGGGSTTYAQTFQGRVTITADESTSTAYMELSSLRSEDTAVYYCARDTVMGGMDVWGQGTLVTVSS VL: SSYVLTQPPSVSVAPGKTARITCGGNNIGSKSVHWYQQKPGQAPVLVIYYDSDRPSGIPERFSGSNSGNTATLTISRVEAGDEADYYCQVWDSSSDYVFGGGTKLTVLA | 0.0149 s⁻¹
